- Tested on: c-Abl (mouse);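 note: 11-residue human phosphosite peptides and single-mutation variants displayed on the E. coli surface, counted by deep sequencing, each peptide's frequency after selection divided by its frequency in the unselected input library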;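 note: frequency after pTyr selection over input frequency; kinase dosed for 20-30% of maximal phosphorylation in three min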
- Assay Info: phosphorylation enrichment, bacterial display (enrichment ratio); higher = better substrate or ligand; peptides without Tyr show the background
// reported phosphorylation enrichment for each item listed
Reply with the value as a number alone.

Look over these answered cases.
>>> print(df.to_string())
                    sequence_code           measured_quantity  reported
0        NGEDPYAGSTD [XRCC1_Y515]  phosphorylation enrichment     0.779
1    TLAHKYHGGGG [HBB_Y146_A141T]  phosphorylation enrichment      1.03
2    ATDLAYYLVRE [ASL_Y375_K380E]  phosphorylation enrichment     0.527
3       MWGSDYVQLSR [MAP3K4_Y582]  phosphorylation enrichment      0.53
4  ENGPYYASYPP [GDAP2_Y488_T489A]  phosphorylation enrichment      3.72

Challenge: Fill blank: measured phosphorylation enrichment of the sequence AKLDIYKRKVE [VWA3B_Y918_N916D] is ____.
Response given: 0.411

Challenge: Fill blank: measured phosphorylation enrichment of the sequence KGSEGYLAAIY [NF1_Y2503_T2507I] is ____.
Response given: 0.563

Challenge: Fill blank: measured phosphorylation enrichment of the sequence KIPGRYFETGS [PAX2_Y72_L69P_YF] is ____.
Response given: 0.633

Challenge: Fill blank: measured phosphorylation enrichment of the sequence KNNSIYVLANI [VNN1_Y134_V136L] is ____.
Response given: 1.05

Challenge: Fill blank: measured phosphorylation enrichment of the sequence VNKIFHPDFIV [LIG3_Y768_Y768H_YF] is ____.
Response given: 0.6

Challenge: Fill blank: measured phosphorylation enrichment of the sequence DMDATYRPMYS [JUP_Y701] is ____.
Response given: 0.656

Challenge: Fill blank: measured phosphorylation enrichment of the sequence NNRVFYGNSDC [RS1_Y177_R182C] is ____.
Response given: 0.742

Challenge: Fill blank: measured phosphorylation enrichment of the sequence FRPPFYHRDCM [HGD_Y334_N337D_YF] is ____.
Response given: 0.735

Challenge: Fill blank: measured phosphorylation enrichment of the sequence CTLLPYYSAPV [DGKE_Y269_R273P] is ____.
Response given: 1.65
